Below: a set of entries, each annotated with reported log10(koff).
Target: T1, Human PD-1 (AcroBiosystems) (human, UniProt Q15116 25-167, limits assumed)
T1 construct: Bought recombinant protein, amine-coupled to the SPR chip
T1 sequence (Q15116 25-167 limits assumed): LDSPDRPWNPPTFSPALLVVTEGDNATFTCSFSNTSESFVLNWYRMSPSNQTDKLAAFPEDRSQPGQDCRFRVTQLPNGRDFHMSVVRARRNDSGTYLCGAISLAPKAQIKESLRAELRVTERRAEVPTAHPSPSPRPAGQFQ
Experimental protocol: SPR (ProteOn XPR), human PD-1 amine-coupled on GLC chip, antibody as analyte, Langmuir model
Please interpret these as log10 of koff where koff is in s⁻¹.

// solved cases for log10(koff) follow
N7NL (antibody, human IgG4 S228P, kappa, V domains shown, Full-length IgG4 from the pZRCIII hyg.IgG4 vector) VH: QVQLVESGGGVVQPGRSLRLDCKASGITFSNSGMHWVRQAPGKGLEWVAVIWYDGSKRYYADSVKGRFTISRDNSKNTLFLQMNSLRAEDTAVYYCATNSDYWGQGTLVTVSS VL: EIVLTQSPATLSLSPGERATLSCRASQSVSSYLAWYQQKPGQAPRLLIYDASNRATGIPARFSGSGSGTDFTLTISSLEPEDFAVYYCQQSSNWPRTFGQGTKVEIKR: -4.02
N5NL (antibody, human IgG4 S228P, kappa, V domains shown, Full-length IgG4 from the pZRCIII hyg.IgG4 vector. 'NSNL' in the text is an OCR form of N5NL; also called NSNL) VH: QVQLVESGGGVVQPGRSLRLDCKASGITFSNSGMHWVRQAPGKGLEWVAVIWYDGSKRYYADSVKGRFTISRDNSKNTLFLQMNSLRAEDTAVYYCATNSDFWGQGTLVTVSS VL: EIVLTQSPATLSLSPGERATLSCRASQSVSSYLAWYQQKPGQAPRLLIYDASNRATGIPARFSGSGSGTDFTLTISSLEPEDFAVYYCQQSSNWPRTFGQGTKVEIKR: -3.82
IP-H4.19L1 (antibody, human IgG4 S228P, kappa, V domains shown) VH: QVQLVQSGVEVKKPGASVKVSCKASGYTFTTYYIYWVRQAPGQGLEWMGGVNPSNSGTNYNENYKNRVTLTTDSSTTTAYMELKSLQFDDTAVYYCARRDYRYDMGFDYWGQGTTVTVSS VL: EIVLTQSPATLSLSPGERATLSCRASKGVSTSGYSYLHWYQQKPGQAPRLLIYLASYLESGVPARFSGSGSGTDFTLTISSLEPEDFAVYYCQHSRDLPLTFGGGTKVEIKR: -4.20

// returns reported log10(koff) for input IP-H4.36L1 (antibody, human IgG4 S228P, kappa, V domains shown) VH: QVQLVQSGVEVKKPGASVKVSCKASGYTFTTYYIYWVRQAPGQGLEWMGGVNPSNGGTNYNQNYKNRVTLTTDSSTTTAYMELKSLQFDDTAVYYCARRDYRYDMGFDYWGQGTTVTVSS VL: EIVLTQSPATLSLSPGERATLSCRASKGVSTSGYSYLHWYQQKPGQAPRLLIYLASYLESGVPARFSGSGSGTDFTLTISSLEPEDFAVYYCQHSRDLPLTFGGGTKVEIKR
-4.21

// returns reported log10(koff) for input IP-H4.2L1 (antibody, human IgG4 S228P, kappa, V domains shown) VH: QVQLVQSGVEVKKPGASVKVSCKASGYTFTTYYIYWVRQAPGQGLEWMGGVNPSNGGTNYNENYKNRVTLTTDSSTTTAYMELKSLQFDDTAVYYCARRDYRYDMGYDYWGQGTTVTVSS VL: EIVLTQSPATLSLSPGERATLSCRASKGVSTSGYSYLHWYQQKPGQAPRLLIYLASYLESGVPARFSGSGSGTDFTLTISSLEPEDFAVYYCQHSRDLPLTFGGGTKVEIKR
-4.86

// returns reported log10(koff) for input N6NL (antibody, human IgG4 S228P, kappa, V domains shown, Full-length IgG4 from the pZRCIII hyg.IgG4 vector) VH: QVQLVESGGGVVQPGRSLRLDCKASGITFSNSGMHWVRQAPGKGLEWVAVIWYDGSKRYYADSVKGRFTISRDNSKNTLFLQMNSLRAEDTAVYYCATNSDHWGQGTLVTVSS VL: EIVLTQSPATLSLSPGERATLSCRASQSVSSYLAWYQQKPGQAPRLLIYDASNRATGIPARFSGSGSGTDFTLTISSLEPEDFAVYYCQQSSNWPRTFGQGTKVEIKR
-3.81
